Reference source: patent US5053416A

Catalogue of LD50 at 168 h readings, one per entry.
# Test method notes: in vivo
# Particulars: mouse, male mice, oral route, mortality during 7 days following treatment
Give the quantity in mg/kg, number only.

// query Please report LD50 at 168 h for the following compound: `ON1CCC=C(c2ncco2)C1`
// result 300

// query Please report LD50 at 168 h for the following compound: `Cc1cnc(C2=CCCNC2)o1.Cl`
// result 500

// query Please report LD50 at 168 h for the following compound: `Cc1coc(C2=CCCNC2)n1.Cl`
// result 125

// query Please report LD50 at 168 h for the following compound: `C1=C(c2ncco2)CNCC1.Cl`
// result 200
